Can you tell me selectivity ratio for the items I'm about to list?
Test: Therapeutic index, ratio of NOAEL in Zebrafish embryos to apoptotic EC50 in Zebrafish embryos
Type: organism-based, Danio rerio
Details: read-out: TI
Response field accepts a number only; no unit should be typed.

Q: Value lookup for selectivity ratio; key = CCOC(=O)c1c(-n2c(-c3ccccc3)cc3nccnc32)sc2c1CCC2
Ans: 0.577

Q: Check CCOC(=O)c1ccsc1-n1c(-c2ccccc2)cc2nc3ccccc3nc21 too.
Ans: 0.31

Q: Check CCOC(=O)c1c(-c2ccccc2)csc1-n1c(-c2ccc(C)cc2)cc2nc3ccccc3nc21 too.
Ans: 1.64

* * *

Experiment: Teratogenicity in Zebrafish embryo assessed as live embryo level at 3 uM incubated at 28.5 degC until 5 days post fertilization
Type: ADME, organism-based, Danio rerio
Settings: zebrafish embryos, read-out: Activity
RECORDED ENDPOINT: survival at 120 h, 3 µM

Q: Value lookup for survival at 120 h, 3 µM; key = CCOC(=O)c1c(-n2c(-c3ccccc3)cc3nccnc32)sc2c1CCC2
Ans: 50%

* * *

Species: Danio rerio
Assay: Induction of apoptosis in Zebrafish embryo incubated for 24 to 48 hrs by acridine orange based fluorescence microscopy
Assay type: functional, organism-based
Can you tell me EC50 for the items I'm about to list?
Quick note: give the figure in µM, leave out the unit.

Q: Value lookup for EC50; key = CCOC(=O)c1c(-n2c(-c3ccccc3)cc3nccnc32)sc2c1CCC2
Ans: 1.73

Q: Check CCOC(=O)c1c(-c2ccccc2)csc1-n1c(-c2ccc(C)cc2)cc2nc3ccccc3nc21 too.
Ans: 1.83

Q: Check CCOC(=O)c1ccsc1-n1c(-c2ccccc2)cc2nc3ccccc3nc21 too.
Ans: 3.22
